- system tested: T1, Human IL2Rγ extracellular domain expressed with a C-terminal myc-myc-hexahistidine tag (human)
- T1 construct: also called hIL-2Rg-MMH; hIL-2RG-MMH
- T1 chain: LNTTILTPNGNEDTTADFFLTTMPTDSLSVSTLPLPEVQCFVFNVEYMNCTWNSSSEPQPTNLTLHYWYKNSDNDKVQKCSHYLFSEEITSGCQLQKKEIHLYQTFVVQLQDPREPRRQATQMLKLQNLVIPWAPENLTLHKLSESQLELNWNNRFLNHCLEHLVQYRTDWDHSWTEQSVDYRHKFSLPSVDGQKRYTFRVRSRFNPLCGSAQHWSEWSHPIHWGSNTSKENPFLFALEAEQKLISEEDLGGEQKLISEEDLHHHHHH
- method notes: SPR Biacore 4000, mAb captured by anti-hFc, HBS-ET, 37C
property label: Kd (nM)
Only the number, expressed in nM, is required.

Consider the reported Kd for these binders:
>>> measured_number("H4H12858P (antibody, human IgG4 S228P, kappa, V domains shown, anti-IL2Rγ monoclonal antibody expressed with human IgG4 Fc; also called REGN9433) VH: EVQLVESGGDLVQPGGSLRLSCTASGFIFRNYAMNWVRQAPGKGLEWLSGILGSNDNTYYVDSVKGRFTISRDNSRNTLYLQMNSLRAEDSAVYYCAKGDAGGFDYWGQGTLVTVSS VL: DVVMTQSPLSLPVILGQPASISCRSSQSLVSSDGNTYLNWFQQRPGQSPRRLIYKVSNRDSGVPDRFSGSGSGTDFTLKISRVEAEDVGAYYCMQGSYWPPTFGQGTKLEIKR")
4.52
>>> measured_number("H4H13538P (antibody, human IgG4 S228P, kappa, V domains shown, anti-IL2Rγ monoclonal antibody expressed with human IgG4 Fc) VH: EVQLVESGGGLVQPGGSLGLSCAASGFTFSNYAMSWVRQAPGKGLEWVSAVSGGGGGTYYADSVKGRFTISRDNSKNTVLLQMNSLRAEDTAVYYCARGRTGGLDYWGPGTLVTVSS VL: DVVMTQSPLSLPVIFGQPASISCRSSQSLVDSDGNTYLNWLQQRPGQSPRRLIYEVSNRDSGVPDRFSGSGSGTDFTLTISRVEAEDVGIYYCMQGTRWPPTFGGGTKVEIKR")
3.4

Attention now turns to another entry.
(Q) What value of Kd has been reported for the following binder? H4H13541P (antibody, human IgG4 S228P, kappa, V domains shown, anti-IL2Rγ monoclonal antibody expressed with human IgG4 Fc) VH: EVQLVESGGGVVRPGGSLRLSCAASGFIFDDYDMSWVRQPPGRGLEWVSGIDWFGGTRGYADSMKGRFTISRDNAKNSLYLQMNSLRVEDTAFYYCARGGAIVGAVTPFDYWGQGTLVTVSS VL: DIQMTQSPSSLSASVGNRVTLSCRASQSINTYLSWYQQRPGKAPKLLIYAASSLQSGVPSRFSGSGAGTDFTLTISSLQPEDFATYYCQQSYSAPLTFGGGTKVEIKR
(A) 5.01

The measured values listed here are drawn from patent US20200247894A1.
